B1: NP_006221.1 (parent)
chain: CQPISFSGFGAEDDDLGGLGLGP

Variants of: B1
testDetails: protein stability index of a GFP-peptide fusion (GPS, HEK-293T) (PSI 1-6); higher = more stable;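 note: lentivirally expressed fusion library, cells FACS-sorted into six equal-sized GFP/DsRed ratio bins, PSI computed from sequencing read fractions per bin weighted by bin number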
assayContext: c terminus: native
// protein stability index lookup, one value per entry

{"polymerSequence": "CQPISHSGFGAEDDDLGGLGLGP [F6H]", "protein stability index": 3.48}
{"polymerSequence": "CQPISFSGFGAEDPDLGGLGLGP [D14P]", "protein stability index": 2.19}
{"polymerSequence": "CQPISFSGFVAEDDDLGGLGLGP [G10V]", "protein stability index": 2.2}
{"polymerSequence": "CQPISFSLFGAEDDDLGGLGLGP [G8L]", "protein stability index": 1.97}
{"polymerSequence": "CSPISFSGFGAEDDDLGGLGLGP [Q2S]", "protein stability index": 2.64}
{"polymerSequence": "CQPISFSGFGAEFDDLGGLGLGP [D13F]", "protein stability index": 2.54}
{"polymerSequence": "CPPISFSGFGAEDDDLGGLGLGP [Q2P]", "protein stability index": 2.19}
{"polymerSequence": "CQPISFSGFGAESDDLGGLGLGP [D13S]", "protein stability index": 2.41}
{"polymerSequence": "CQPISFSGFGAEDDDLGGLSLGP [G20S]", "protein stability index": 2.69}
{"polymerSequence": "CQPISFSGFGAEHDDLGGLGLGP [D13H]", "protein stability index": 2.2}
{"polymerSequence": "CQPISFSGFGAEDDDLGGLGLGQ [P23Q]", "protein stability index": 4.25}
{"polymerSequence": "CQPISFSGFTAEDDDLGGLGLGP [G10T]", "protein stability index": 1.91}
{"polymerSequence": "CQPISFSGFGAEDDDLGGLGLNP [G22N]", "protein stability index": 3.35}
{"polymerSequence": "CQPISFAGFGAEDDDLGGLGLGP [S7A]", "protein stability index": 1.89}
{"polymerSequence": "CQPISFHGFGAEDDDLGGLGLGP [S7H]", "protein stability index": 3.06}
{"polymerSequence": "CQPISFSGFGAEDDDLGGLGSGP [L21S]", "protein stability index": 5.12}
{"polymerSequence": "CQPISFSGFGAEDDDLGGLFLGP [G20F]", "protein stability index": 3.81}
{"polymerSequence": "CQPISFSGFGAEDDDAGGLGLGP [L16A]", "protein stability index": 2.59}
{"polymerSequence": "CQPISFSWFGAEDDDLGGLGLGP [G8W]", "protein stability index": 2.19}
{"polymerSequence": "DQPISFSGFGAEDDDLGGLGLGP [C1D]", "protein stability index": 2.57}
{"polymerSequence": "CQPILFSGFGAEDDDLGGLGLGP [S5L]", "protein stability index": 2.25}
{"polymerSequence": "CQPISFSGFGAEDDKLGGLGLGP [D15K]", "protein stability index": 2.2}
{"polymerSequence": "CQPISFSGFGALDDDLGGLGLGP [E12L]", "protein stability index": 1.88}
{"polymerSequence": "CFPISFSGFGAEDDDLGGLGLGP [Q2F]", "protein stability index": 1.99}
{"polymerSequence": "CQPISFSGFGAEMDDLGGLGLGP [D13M]", "protein stability index": 2.24}
{"polymerSequence": "CQLISFSGFGAEDDDLGGLGLGP [P3L]", "protein stability index": 2.1}
{"polymerSequence": "CQPISFSGFGAEDDDLFGLGLGP [G17F]", "protein stability index": 2.08}
{"polymerSequence": "GQPISFSGFGAEDDDLGGLGLGP [C1G]", "protein stability index": 2.41}
{"polymerSequence": "CQPISDSGFGAEDDDLGGLGLGP [F6D]", "protein stability index": 4.57}
{"polymerSequence": "CQPISFSGFGAEDDDLGGKGLGP [L19K]", "protein stability index": 1.99}
{"polymerSequence": "CQPISFSGFGATDDDLGGLGLGP [E12T]", "protein stability index": 2.06}
{"polymerSequence": "CQPISFIGFGAEDDDLGGLGLGP [S7I]", "protein stability index": 2.13}
{"polymerSequence": "CQPISFSGFYAEDDDLGGLGLGP [G10Y]", "protein stability index": 1.94}
{"polymerSequence": "CQFISFSGFGAEDDDLGGLGLGP [P3F]", "protein stability index": 1.94}
{"polymerSequence": "CQPISFSGFDAEDDDLGGLGLGP [G10D]", "protein stability index": 2.51}
{"polymerSequence": "CQPISFSGFGAEDDRLGGLGLGP [D15R]", "protein stability index": 2.13}
{"polymerSequence": "CQPISFSGFGAELDDLGGLGLGP [D13L]", "protein stability index": 2.27}
{"polymerSequence": "CQPISFSGFGAEDRDLGGLGLGP [D14R]", "protein stability index": 1.99}
{"polymerSequence": "CQPISFSVFGAEDDDLGGLGLGP [G8V]", "protein stability index": 2.16}
{"polymerSequence": "CQPISFSFFGAEDDDLGGLGLGP [G8F]", "protein stability index": 2.39}
{"polymerSequence": "CQKISFSGFGAEDDDLGGLGLGP [P3K]", "protein stability index": 2.05}
{"polymerSequence": "CQPISFSGFGAEGDDLGGLGLGP [D13G]", "protein stability index": 2.53}
{"polymerSequence": "CTPISFSGFGAEDDDLGGLGLGP [Q2T]", "protein stability index": 2.16}
{"polymerSequence": "CQPISFSGFGAEDDDLGGLGLGC [P23C]", "protein stability index": 3.17}
{"polymerSequence": "CQPISFSGFGAEDDDLGGLGLPP [G22P]", "protein stability index": 4.39}
{"polymerSequence": "CQPISFSGFGAEDDDLAGLGLGP [G17A]", "protein stability index": 2.16}

Values compiled from the supplement of paper PMC10567573.
